Below is a list of entries, each paired with its recorded GI50 value.
- System: M14 melanoma
- assay-text: NCI tumour cell line growth inhibition, 48 h
property-name: GI50

[
  {
    "smiles-representation": "C[C@H]1[C@H](C)CC[C@]2(C(=O)O)CC[C@]3(C)C(=CC[C@@H]4[C@@]5(C)C/C(=C/c6ccco6)C(=O)C(C)(C)[C@@H]5CC[C@]43C)[C@H]12",
    "experimental-result": "5.27 µM"
  },
  {
    "smiles-representation": "COC1=CC(c2ccc[nH]2)=N/C1=C\\c1[nH]c(C)c(C(=O)CCCCC(=O)Nc2ccccc2)c1C",
    "experimental-result": "2.01 µM"
  },
  {
    "smiles-representation": "N#Cc1ccnc(N2C(=O)CC[C@H]2C(=O)N(c2cncc(F)c2)[C@H](C(=O)NC2CC(F)(F)C2)c2ccccc2Cl)c1",
    "experimental-result": "49.1 µM"
  },
  {
    "smiles-representation": "NCCC(O)(P(=O)(O)O)P(=O)(O)O",
    "experimental-result": "> 100 µM"
  },
  {
    "smiles-representation": "C=C1C(=O)O[C@H]2[C@H]1CC/C(COC(=O)NCc1c[nH]c3ccc(Cl)cc13)=C\\CC[C@@]1(C)O[C@@H]21",
    "experimental-result": "1.4 µM"
  },
  {
    "smiles-representation": "CCCN(CCC)c1ccc(/C=N/NC(=O)c2cccnc2)c(Cl)c1",
    "experimental-result": "8.71 µM"
  }
]
